test: physchem
reported property: pKa

{"structure string": "Cc1c(Cl)cccc1S(=O)(=O)Nc1nc(CCN2CCOCC2=O)cs1", "reported property": "pKa", "result": "~6.6"}

====

experiment: pH dependent aqueous solubility of Compound A; assay type: physicochemical; conditions: water, pH 4, aqueous buffer

{"structure string": "Cc1c(Cl)cccc1S(=O)(=O)Nc1nc(CCN2CCOCC2=O)cs1", "solubility": "< 15 µg/mL"}
